# Assay system: UniProtKB P00734
# Experiment: Determination of inhibition constants for thrombin
# Type: biochemical
Each entry below carries its recorded Ki.

Recorded results for 2 compounds are shown here.
Query block: Report Ki under test system UniProtKB P00734 for CC(C)(C)OC[C@@H](NS(=O)(=O)Cc1ccc(C(=O)O)cc1)C(=O)N[C@@H](Cc1cccc(CN)c1)C(=O)NCc1ccc(C(=N)N)cc1 [compound 65] .
Result block: > 1000 nM

Query block: Report Ki under test system UniProtKB P00734 for N=C(N)c1ccc(CNC(=O)[C@H](CCc2ccccc2)NC(=O)[C@@H](CCCc2cccnc2)NS(=O)(=O)Cc2cccc(C(=O)O)c2)cc1 [compound 52] .
Result block: < 100 nM

New cases:
Query block: Report Ki under test system UniProtKB P00734 for N=C(N)Nc1ccc(CNC(=O)[C@H](Cc2cccc(CN)c2)NC(=O)[C@@H](CCCc2ccccc2)NS(=O)(=O)Cc2cccc(C(=O)O)c2)cc1 [compound 4] .
Result block: > 1000 nM
